Target: Desmoglein-3 (Homo sapiens)
Test: blockers of anti-DSG3 scFv binding – biochemical, bead-based, flow cytometry, scFv-GFP, primary screen (AID 588358);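 note: hits lower antibody fragment binding to DSG3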
Conditions: DSG3-coupled beads, at 10 µM
Among all 310,000 compounds or so, about 1,500 (0.48%) were called active.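 Rule for the calls: active = binding more than 3 SD below its plate's average and above zero; inconclusive = below that plate limit but binding exactly zero; inactive = the rest.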 This is one part of a sample in which actives are shown more often than they occur.
# output must be one of Yes = active, No = inactive

Ask | Could you kindly confirm the outcome this assay logged for "CC(C)CCC(=O)Nc1cc(S(=O)(=O)N2CCOCC2)ccc1N1CCCC1" ?
Reply | No

Ask | Could you kindly confirm the outcome this assay logged for "COc1cc(-c2nnn(CC(=O)NCc3ccccc3)n2)cc(OC)c1OC" ?
Reply | No

Ask | Could you kindly confirm the outcome this assay logged for O=S(=O)(c1cccc(C(F)(F)F)c1)N1c2ccccc2-n2cccc2C1c1cccnc1 (stereo unspecified) ?
Reply | No

Ask | Could you kindly confirm the outcome this assay logged for CN(C)C(CNC(=O)c1cc(Br)c(Br)s1)c1ccco1 (stereo unspecified) ?
Reply | No

Ask | Could you kindly confirm the outcome this assay logged for "COc1ccc(CCNC(=O)CN(c2ccccc2)S(=O)(=O)c2ccccc2)cc1" ?
Reply | No

Ask | Could you kindly confirm the outcome this assay logged for "O=C(NNC(=O)c1cccnc1)Nc1ccccc1" ?
Reply | No

Ask | Could you kindly confirm the outcome this assay logged for "O=C(Cn1nnc(-c2ccccc2)n1)NC(=O)NC1CCCC1" ?
Reply | No

Ask | Could you kindly confirm the outcome this assay logged for "CCOc1cc(N2CCOCC2)c(OCC)cc1NC(=O)COc1cccc(Cl)c1" ?
Reply | No

Ask | Could you kindly confirm the outcome this assay logged for "O=S(=O)(c1ccc(-c2ccccc2)cc1)N1CCCC1" ?
Reply | No

Ask | Could you kindly confirm the outcome this assay logged for "CC(C)CCOc1ccc(C(=O)Nc2cc(S(=O)(=O)N3CCOCC3)ccc2N2CCOCC2)cc1" ?
Reply | No

Ask | Could you kindly confirm the outcome this assay logged for "CC(C)n1ncc2c(C(=O)N3CCN(Cc4cccs4)CC3)cc(C3CC3)nc21" ?
Reply | No

Ask | Could you kindly confirm the outcome this assay logged for CCOC(=O)C(C(=O)c1ccccc1)C(c1ccccc1)c1nccc2ccccc12 (stereo unspecified) ?
Reply | No

Ask | Could you kindly confirm the outcome this assay logged for "O=C(NCCN1CCOCC1)c1ccc2c(c1)N(Cc1cccc(Cl)c1)C(=O)c1ccccc1S2(=O)=O" ?
Reply | No

Ask | Could you kindly confirm the outcome this assay logged for "O=C(CC(CC(=O)c1ccccc1)c1ccco1)c1ccccc1" ?
Reply | No

Ask | Could you kindly confirm the outcome this assay logged for CCN(CC(=O)Nc1ccc(NC(C)=O)cc1)C(=O)C1CC(=O)N(c2ccc3c(c2)OCCO3)C1 (stereo unspecified) ?
Reply | No

Ask | Could you kindly confirm the outcome this assay logged for "O=C(CN1C(=O)c2ccc([N+](=O)[O-])cc2C1=O)Nc1nnc(C2CC2)s1" ?
Reply | Yes

Ask | Could you kindly confirm the outcome this assay logged for COc1ccc(CN2C(=O)C(CC(=O)NC3CCCCC3)CC(C(=O)N3CCOCC3)=C2C)cc1 (stereo unspecified) ?
Reply | No

Ask | Could you kindly confirm the outcome this assay logged for "O=C(Cc1cccs1)Nc1nnc(C2CC2)s1" ?
Reply | No

Ask | Could you kindly confirm the outcome this assay logged for COc1ccc(CN2C(=O)C(CC(=O)NCc3cccc4ccccc34)CC(C(=O)N3CCOCC3)=C2C)cc1 (stereo unspecified) ?
Reply | No

Ask | Could you kindly confirm the outcome this assay logged for "CCOC(=O)c1c(NC(=O)COC(=O)c2ccc(S(=O)(=O)C(F)F)cc2)sc(C(=O)N(C)C)c1C" ?
Reply | No

Ask | Could you kindly confirm the outcome this assay logged for "O=C(CC(=O)c1cccnc1)c1ccccc1" ?
Reply | Yes
